molecular target: recombinant c-Met kinase (Homo sapiens, UniProt P08581); test: Cell-free detection of c-Met kinase activity (ADP-Glo assay)
Sequence (P08581 25-1390): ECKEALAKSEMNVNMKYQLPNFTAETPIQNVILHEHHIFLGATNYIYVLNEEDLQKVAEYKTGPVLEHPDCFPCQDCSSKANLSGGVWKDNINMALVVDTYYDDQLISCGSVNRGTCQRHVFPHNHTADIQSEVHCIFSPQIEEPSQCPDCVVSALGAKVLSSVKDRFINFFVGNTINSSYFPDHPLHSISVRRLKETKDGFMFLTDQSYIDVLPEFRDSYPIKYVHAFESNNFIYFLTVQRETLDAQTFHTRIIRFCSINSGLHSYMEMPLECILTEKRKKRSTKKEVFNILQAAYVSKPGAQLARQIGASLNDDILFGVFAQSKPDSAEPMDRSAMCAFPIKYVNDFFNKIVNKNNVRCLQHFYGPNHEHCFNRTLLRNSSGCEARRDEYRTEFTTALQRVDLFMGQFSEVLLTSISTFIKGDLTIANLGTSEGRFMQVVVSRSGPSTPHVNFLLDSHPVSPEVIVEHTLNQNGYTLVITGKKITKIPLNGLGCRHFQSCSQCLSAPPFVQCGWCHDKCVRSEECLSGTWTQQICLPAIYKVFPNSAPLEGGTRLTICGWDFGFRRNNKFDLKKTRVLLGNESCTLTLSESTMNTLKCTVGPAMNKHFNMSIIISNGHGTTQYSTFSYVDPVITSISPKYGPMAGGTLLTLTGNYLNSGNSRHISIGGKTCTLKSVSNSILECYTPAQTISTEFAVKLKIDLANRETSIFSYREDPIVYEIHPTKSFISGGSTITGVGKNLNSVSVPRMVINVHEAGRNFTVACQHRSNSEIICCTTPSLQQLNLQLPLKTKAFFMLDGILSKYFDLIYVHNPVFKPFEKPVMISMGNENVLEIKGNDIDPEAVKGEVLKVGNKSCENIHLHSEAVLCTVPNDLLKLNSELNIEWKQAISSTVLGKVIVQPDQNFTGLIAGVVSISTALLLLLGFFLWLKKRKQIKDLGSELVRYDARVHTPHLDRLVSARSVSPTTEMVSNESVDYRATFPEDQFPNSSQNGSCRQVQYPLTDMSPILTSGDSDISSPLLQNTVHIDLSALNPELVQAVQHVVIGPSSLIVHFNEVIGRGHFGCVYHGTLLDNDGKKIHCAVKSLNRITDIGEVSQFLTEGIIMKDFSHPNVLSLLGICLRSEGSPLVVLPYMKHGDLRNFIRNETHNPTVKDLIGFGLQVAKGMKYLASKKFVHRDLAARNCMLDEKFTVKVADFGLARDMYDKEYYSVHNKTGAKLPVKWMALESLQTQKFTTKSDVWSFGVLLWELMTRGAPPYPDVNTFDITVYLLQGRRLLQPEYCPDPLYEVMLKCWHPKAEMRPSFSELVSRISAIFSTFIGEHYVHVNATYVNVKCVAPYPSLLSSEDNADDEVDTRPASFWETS
pIC50: −log10 of the molar value.
measure name: pIC50

P: COc1ccc(/C=N/NC(=O)Cn2cc(-c3cccc(NC(C)=O)c3)nn2)c(OC)c1 [Compound 10i]
Q: COc1ccc(/C=N/NC(=O)Cn2cc(-c3cccc(NC(C)=O)c3)nn2)cc1OC [Compound 10j]
Field: lower recorded pIC50 (choose P or Q ) Give the label under which the chosen entry appears.
Q

----------
The following compounds are listed with their measured melting point values.

compound="CC(=O)Nc1cccc(-c2cn(CC(=O)N/N=C/c3ccccc3[N+](=O)[O-])nn2)c1 [Compound 10e]" result="233.2 to 233.8 °C"

Please report the recorded melting point for CC(=O)Nc1cccc(-c2cn(CC(=O)N/N=C/c3ccc(Cl)cc3)nn2)c1 [Compound 10a] .
234.6 to 234.9 °C

Lookup CC(=O)Nc1cccc(-c2cn(CC(=O)N/N=C/c3cc(Cl)ccc3O)nn2)c1 [Compound 10f]
234.6 to 234.9 °C

Lookup CC(=O)Nc1cccc(-c2cn(CC(=O)N/N=C/c3cc(Br)ccc3O)nn2)c1 [Compound 10h]
228.9 to 229.3 °C

Lookup O=C(Cn1cc(-c2ccccc2)nn1)N/N=C/c1ccccc1O [Compound 11d]
239 to 239.6 °C

Lookup O=C(Cn1cc(-c2ccccc2)nn1)N/N=C/c1ccccc1[N+](=O)[O-] [Compound 11e]
225.2 to 225.6 °C

Lookup O=C(Cn1cc(-c2ccccc2)nn1)N/N=C/c1cccc(Cl)c1 [Compound 11b]
259 to 259.8 °C

Lookup COc1ccc(/C=N/NC(=O)Cn2cc(-c3ccccc3)nn2)c(OC)c1 [Compound 11i]
230 to 230.4 °C

Reference for the values: paper PMC6968643
